Molecular target: Androgen receptor (Homo sapiens, UniProt P10275)
Sequence (P10275 whole entry): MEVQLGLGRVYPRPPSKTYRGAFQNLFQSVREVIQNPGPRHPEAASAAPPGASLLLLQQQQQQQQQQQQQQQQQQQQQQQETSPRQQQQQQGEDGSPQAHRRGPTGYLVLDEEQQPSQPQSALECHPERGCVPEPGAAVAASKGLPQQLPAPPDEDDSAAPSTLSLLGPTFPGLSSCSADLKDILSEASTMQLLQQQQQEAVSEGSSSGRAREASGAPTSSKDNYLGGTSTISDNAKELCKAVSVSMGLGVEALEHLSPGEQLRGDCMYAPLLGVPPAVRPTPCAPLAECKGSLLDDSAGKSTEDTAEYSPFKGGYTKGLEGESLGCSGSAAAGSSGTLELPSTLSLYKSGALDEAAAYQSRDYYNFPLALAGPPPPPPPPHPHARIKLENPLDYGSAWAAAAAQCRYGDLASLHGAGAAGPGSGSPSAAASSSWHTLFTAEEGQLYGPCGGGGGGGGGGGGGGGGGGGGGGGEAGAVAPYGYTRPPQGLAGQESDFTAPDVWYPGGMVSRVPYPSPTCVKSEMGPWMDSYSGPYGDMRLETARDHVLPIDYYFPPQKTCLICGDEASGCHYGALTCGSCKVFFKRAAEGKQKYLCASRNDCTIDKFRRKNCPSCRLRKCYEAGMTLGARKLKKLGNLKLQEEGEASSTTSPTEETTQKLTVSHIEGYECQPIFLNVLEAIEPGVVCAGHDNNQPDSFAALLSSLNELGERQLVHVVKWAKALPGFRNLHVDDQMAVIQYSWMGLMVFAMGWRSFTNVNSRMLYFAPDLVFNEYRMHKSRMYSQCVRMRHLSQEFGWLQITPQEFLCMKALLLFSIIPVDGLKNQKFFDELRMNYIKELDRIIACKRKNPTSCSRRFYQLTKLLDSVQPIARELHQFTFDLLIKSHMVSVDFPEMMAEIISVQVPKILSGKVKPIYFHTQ
Assay: Inhibition of BF3 site of androgen receptor in human LNCAP cells expressing ARR2PB after 3 days by eGFP transcriptional assay
Assay type: cell-based
REPORTED PROPERTY: IC50 (µM)

Cc1ccc(OCCSc2nc3ccccc3n2CC(=O)OC(C)C)cc1 11.1

I = c1ccc(CCCSc2nc3ccccc3[nH]2)cc1
II = CCOC(=O)Cn1c(SCCOc2cccc(CC)c2)nc2ccccc21
Prompt line: In terms of reported IC50, does I or II have the smaller number? State the label of the item chosen.
Response line: I
(I: 12 µM, II: 55 µM)

I = COC(=O)Cn1c(SCCOc2ccc(C)cc2)nc2ccccc21
II = Cc1cccc(C)c1OCCSc1nc2ccccc2[nH]1
III = NS(=O)(=O)c1ccc(OCCSc2nc3ccccc3[nH]2)cc1
Prompt line: Ordering criterion: IC50; begin with the maximum. Form field (ranking): labels in requested order.
Response line: III, I, II
